# TESTED_SYSTEM: T1, human tissue factor (human, UniProt P13726 33-251, limits assumed)
# T1 construct: construct not described; also called TF
# ASSAY_DETAILS: phage ELISA, solution competition: Fab-phage incubated with serially diluted TF, unbound phage captured on TF-coated wells; IC50 used as affinity estimate
VALUE_KIND: IC50 (nM)
Give bare numbers, in nM.

The following binders have reported results that may help.
BINDER: D3 library clone, CDR-L2 YETGEPE (Fab, V domains shown, Changes against the D3 direct graft (Kabat): VL A51E, S53G, L54E, A55P, D56E; copies: 1 + 1) VH: EVQLVESGGGLVQPGGSLRLSCAASGFNIKDYYMHWVRQAPGKGLEWVGWIDPENGNTIYDPKFQDRFTISADTSKNTAYLQMNSLRAEDTAVYYCARDTAAYFDYWGQGTLVTVSS VL: DIQMTQSPSSLSASVGDRVTITCKASRDIKSYLSWYQQKPGKAPKLLIYYETGEPEGVPSRFSGSGSGTDFTLTISSLQPEDFATYYCLQHGESPFTFGQGTKVEIK
IC50, nM: 11
//
BINDER: D3 direct hypervariable region graft on the acceptor human consensus framework (Fab displayed on phage) (Fab, V domains shown, Monovalent Fab-g3 phage display: light chain, and VH-CH1 followed by the minor phage coat protein P3; Kabat numbering; No framework changes; also called D3 grafted variant; D3 graft) VH: EVQLVESGGGLVQPGGSLRLSCAASGFNIKDYYMHWVRQAPGKGLEWVGWIDPENGNTIYDPKFQDRFTISADTSKNTAYLQMNSLRAEDTAVYYCARDTAAYFDYWGQGTLVTVSS VL: DIQMTQSPSSLSASVGDRVTITCKASRDIKSYLSWYQQKPGKAPKLLIYYATSLADGVPSRFSGSGSGTDFTLTISSLQPEDFATYYCLQHGESPFTFGQGTKVEIK
IC50, nM: 19
//
BINDER: D3 library clone, CDR-L2 YAPGLAD (Fab, V domains shown, Changes against the D3 direct graft (Kabat): VL T52P, S53G; Siblings 2; copies: 1 + 1) VH: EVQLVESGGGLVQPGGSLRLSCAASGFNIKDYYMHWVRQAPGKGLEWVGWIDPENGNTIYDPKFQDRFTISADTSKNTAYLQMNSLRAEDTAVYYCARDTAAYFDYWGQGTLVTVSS VL: DIQMTQSPSSLSASVGDRVTITCKASRDIKSYLSWYQQKPGKAPKLLIYYAPGLADGVPSRFSGSGSGTDFTLTISSLQPEDFATYYCLQHGESPFTFGQGTKVEIK
IC50, nM: 8
//
BINDER: D3 library clone, CDR-L2 YATGETD (Fab, V domains shown, Changes against the D3 direct graft (Kabat): VL S53G, L54E, A55T; Siblings 2; copies: 1 + 1) VH: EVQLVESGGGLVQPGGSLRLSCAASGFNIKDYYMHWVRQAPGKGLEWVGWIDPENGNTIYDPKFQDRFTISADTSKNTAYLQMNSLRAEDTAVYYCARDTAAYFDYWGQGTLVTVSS VL: DIQMTQSPSSLSASVGDRVTITCKASRDIKSYLSWYQQKPGKAPKLLIYYATGETDGVPSRFSGSGSGTDFTLTISSLQPEDFATYYCLQHGESPFTFGQGTKVEIK
IC50, nM: 16
//
BINDER: D3 library clone, CDR-L2 YETGWAE (Fab, V domains shown, Changes against the D3 direct graft (Kabat): VL A51E, S53G, L54W, D56E; copies: 1 + 1) VH: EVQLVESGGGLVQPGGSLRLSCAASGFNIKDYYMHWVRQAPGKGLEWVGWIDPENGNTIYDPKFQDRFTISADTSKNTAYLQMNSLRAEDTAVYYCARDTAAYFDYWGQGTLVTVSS VL: DIQMTQSPSSLSASVGDRVTITCKASRDIKSYLSWYQQKPGKAPKLLIYYETGWAEGVPSRFSGSGSGTDFTLTISSLQPEDFATYYCLQHGESPFTFGQGTKVEIK
IC50, nM: 10

Go through the list and state IC50 for each entry.
1. D3 library clone, CDR-L2 YEPGLAD (Fab, V domains shown, Changes against the D3 direct graft (Kabat): VL A51E, T52P, S53G; copies: 1 + 1) VH: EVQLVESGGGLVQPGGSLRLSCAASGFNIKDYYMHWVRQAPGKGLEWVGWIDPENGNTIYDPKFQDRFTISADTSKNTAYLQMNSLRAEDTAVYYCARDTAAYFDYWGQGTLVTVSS VL: DIQMTQSPSSLSASVGDRVTITCKASRDIKSYLSWYQQKPGKAPKLLIYYEPGLADGVPSRFSGSGSGTDFTLTISSLQPEDFATYYCLQHGESPFTFGQGTKVEIK
2. D3 library clone, CDR-L2 YTAGPSD (Fab, V domains shown, Changes against the D3 direct graft (Kabat): VL A51T, T52A, S53G, L54P, A55S; copies: 1 + 1) VH: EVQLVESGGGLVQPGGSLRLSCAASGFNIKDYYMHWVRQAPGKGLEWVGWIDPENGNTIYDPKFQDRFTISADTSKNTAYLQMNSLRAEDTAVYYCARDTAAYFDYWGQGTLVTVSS VL: DIQMTQSPSSLSASVGDRVTITCKASRDIKSYLSWYQQKPGKAPKLLIYYTAGPSDGVPSRFSGSGSGTDFTLTISSLQPEDFATYYCLQHGESPFTFGQGTKVEIK
3. D3 library clone, CDR-L1 KGSGYIKHFVS (Fab, V domains shown, Changes against the D3 direct graft (Kabat): VL A25G, R27G, D28Y, S31H, Y32F, L33V; Siblings 2; copies: 1 + 1) VH: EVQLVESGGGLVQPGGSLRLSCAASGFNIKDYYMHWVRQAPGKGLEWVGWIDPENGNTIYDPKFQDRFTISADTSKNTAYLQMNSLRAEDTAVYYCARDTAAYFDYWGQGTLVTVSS VL: DIQMTQSPSSLSASVGDRVTITCKGSGYIKHFVSWYQQKPGKAPKLLIYYATSLADGVPSRFSGSGSGTDFTLTISSLQPEDFATYYCLQHGESPFTFGQGTKVEIK
4. D3 library clone, CDR-L2 YETGPTD (Fab, V domains shown, Changes against the D3 direct graft (Kabat): VL A51E, S53G, L54P, A55T; copies: 1 + 1) VH: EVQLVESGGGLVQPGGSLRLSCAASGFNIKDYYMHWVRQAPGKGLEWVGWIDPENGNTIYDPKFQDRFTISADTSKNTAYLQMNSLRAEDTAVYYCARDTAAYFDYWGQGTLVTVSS VL: DIQMTQSPSSLSASVGDRVTITCKASRDIKSYLSWYQQKPGKAPKLLIYYETGPTDGVPSRFSGSGSGTDFTLTISSLQPEDFATYYCLQHGESPFTFGQGTKVEIK
5. D3 library clone, CDR-L1 KGSRDTTSFVS (Fab, V domains shown, Changes against the D3 direct graft (Kabat): VL A25G, I29T, K30T, Y32F, L33V; copies: 1 + 1) VH: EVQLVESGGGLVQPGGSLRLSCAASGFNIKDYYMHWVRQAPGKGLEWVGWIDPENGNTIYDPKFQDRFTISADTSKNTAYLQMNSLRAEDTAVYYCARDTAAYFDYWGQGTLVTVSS VL: DIQMTQSPSSLSASVGDRVTITCKGSRDTTSFVSWYQQKPGKAPKLLIYYATSLADGVPSRFSGSGSGTDFTLTISSLQPEDFATYYCLQHGESPFTFGQGTKVEIK

Solution:
[7, 16, 9, 9, 19]
